molecular target: Cyclin-dependent kinase 2/cyclin E1 (Homo sapiens); test: Inhibition of CDK2/cyclin E (unknown origin) expressed in Sf9 cells using histone H1 as substrate in presence of [gamma33P]ATP
property_measured: IC50

As a guide, the following entries are already answered.
molecule: Cc1nn(C)c2nnc(Nc3ccc(S(=O)(=O)N4CCCNCC4)cc3)nc12
measured_value: > 50 µM

molecule: Cc1nn(C)c2nnc(Nc3ccc(S(=O)(=O)N4CCOCC4)cc3)nc12
measured_value: > 25 µM

molecule: O=C(O)c1ccc2c(c1)nc(Nc1cccc(Cl)c1)c1ccncc12
measured_value: 1.8 µM

molecule: Cc1nn(C)c2nnc(Nc3ccc(S(=O)(=O)N4CCCCC4)cc3)nc12
measured_value: > 25 µM

molecule: Cc1nn(C)c2nnc(Nc3ccc(S(=O)(=O)NCC(O)CO)cc3)nc12 (stereo not drawn)
measured_value: > 50 µM

get_value(item= Cc1nn(C)c2nnc(Nc3ccc(S(N)(=O)=O)cc3)nc12 , readout=IC50) returns > 50 µM

get_value(item= Cc1nn(C)c2nnc(Nc3ccc(S(=O)(=O)NCCN)cc3)nc12 , readout=IC50) returns 34.9 µM

get_value(item= Cc1nn(C)c2nnc(Nc3ccc(S(=O)(=O)NC(CO)C(C)C)cc3)nc12 (stereo not drawn) , readout=IC50) returns > 50 µM
